pest or weed control at 125 g/ha reference
# Test system: barnyardgrass (Echinochloa crus-galli)
# assay: Test A postemergence
# Assay type: in vivo
# measurement-setup: Echinochloa crus-galli, post-emergence, 240 h, 125 g ai/ha, postemergence, visual injury vs untreated controls after approx. 10 d; 0 = no effect, 100 = complete control; read-out: Barnyardgrass plant response rating (0 to 100 scale)
# Text: […]
Expressed in %, but write only the number.

Solved entries (count: 3):
[
  {
    "smiles-record": "N#Cc1ccc([C@H]2CNC(=O)[C@@H]2C(=O)Nc2cccc(F)c2F)cc1F",
    "measured-quantity": "pest or weed control at 125 g/ha",
    "value-measured": 70
  },
  {
    "smiles-record": "COc1ccc(C(F)(F)F)cc1[C@H]1CN(C)C(=O)[C@@H]1C(=O)Nc1ccccc1F",
    "measured-quantity": "pest or weed control at 125 g/ha",
    "value-measured": 90
  },
  {
    "smiles-record": "CN1C[C@H](c2ccc([Si](C)(C)C)cc2)[C@@H](C(=O)Nc2cccc(F)c2F)C1=O",
    "measured-quantity": "pest or weed control at 125 g/ha",
    "value-measured": 0
  }
]

The record that follows has no pest or weed control at 125 g/ha shown yet.
Enquiry: Recorded pest or weed control at 125 g/ha for O=C1NC[C@H](c2csc3c2CCC3)[C@H]1C(=O)Nc1cccc(F)c1F , please?
Return: 80
